Measured values drawn from ChEMBL document CHEMBL2424622 for this set.

Listed here: items and their measured inhibition.
- Assayed Target: TRAF2 and NCK-interacting protein kinase (Homo sapiens) (UniProt Q9UKE5)
- Sequence (Q9UKE5 whole entry, looked up): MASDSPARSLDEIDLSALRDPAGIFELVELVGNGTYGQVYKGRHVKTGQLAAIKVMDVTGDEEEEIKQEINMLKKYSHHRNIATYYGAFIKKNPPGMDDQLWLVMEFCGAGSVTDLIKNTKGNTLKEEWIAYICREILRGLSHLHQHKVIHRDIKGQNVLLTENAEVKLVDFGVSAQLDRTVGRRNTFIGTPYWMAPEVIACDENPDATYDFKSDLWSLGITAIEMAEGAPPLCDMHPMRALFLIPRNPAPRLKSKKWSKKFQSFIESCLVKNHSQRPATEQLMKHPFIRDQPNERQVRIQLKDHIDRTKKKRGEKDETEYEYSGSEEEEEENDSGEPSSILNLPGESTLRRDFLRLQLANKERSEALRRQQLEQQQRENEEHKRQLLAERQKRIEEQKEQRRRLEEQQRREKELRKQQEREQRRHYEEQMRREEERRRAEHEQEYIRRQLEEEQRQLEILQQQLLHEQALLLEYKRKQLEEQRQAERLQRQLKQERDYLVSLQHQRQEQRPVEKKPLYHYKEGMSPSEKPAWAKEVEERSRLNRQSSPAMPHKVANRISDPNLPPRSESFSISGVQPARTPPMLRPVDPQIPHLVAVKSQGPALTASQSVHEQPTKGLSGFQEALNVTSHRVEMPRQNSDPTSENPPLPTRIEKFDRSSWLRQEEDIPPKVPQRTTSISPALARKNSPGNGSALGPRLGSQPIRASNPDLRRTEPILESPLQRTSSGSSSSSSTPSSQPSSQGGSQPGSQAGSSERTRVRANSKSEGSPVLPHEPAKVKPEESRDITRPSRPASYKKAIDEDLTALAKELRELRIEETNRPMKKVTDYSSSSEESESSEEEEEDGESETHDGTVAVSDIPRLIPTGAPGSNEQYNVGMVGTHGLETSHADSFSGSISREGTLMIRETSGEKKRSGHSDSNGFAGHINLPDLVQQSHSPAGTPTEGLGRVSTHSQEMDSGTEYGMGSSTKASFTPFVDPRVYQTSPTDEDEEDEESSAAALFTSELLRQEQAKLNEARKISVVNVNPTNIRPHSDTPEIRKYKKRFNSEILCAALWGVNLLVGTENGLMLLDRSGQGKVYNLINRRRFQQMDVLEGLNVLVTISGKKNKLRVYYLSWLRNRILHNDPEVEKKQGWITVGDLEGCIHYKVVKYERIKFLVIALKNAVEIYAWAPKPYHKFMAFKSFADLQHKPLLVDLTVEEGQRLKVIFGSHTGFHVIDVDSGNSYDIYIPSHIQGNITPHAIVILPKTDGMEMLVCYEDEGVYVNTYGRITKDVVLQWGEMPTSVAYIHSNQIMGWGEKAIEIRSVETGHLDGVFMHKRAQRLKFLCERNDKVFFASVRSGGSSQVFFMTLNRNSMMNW
- Assay Explanation: Competitive binding affinity to TNIK (unknown origin) at 10 uM in presence of ATP relative to control

Known results for molecules:
1) O[C@H]1CC[C@H](Nc2nccc(-n3ccc4ccccc43)n2)CC1
< 50%
2) N[C@H]1CC[C@H](Nc2nccc(-n3nnc4ccccc43)n2)CC1
92%
3) O[C@H]1CC[C@H](Nc2nccc(-n3nnc4ccccc43)n2)CC1
< 50%

q: What value of inhibition has been reported for the following molecule? "O[C@H]1CC[C@H](Nc2nccc(-c3n[nH]c4ccccc34)n2)CC1"
a: 99%

q: // repeat for "O[C@H]1CC[C@H](Nc2nccc(-n3ncc4ccccc43)n2)CC1" and report
a: 79%

q: Also need "O=C([C@H]1CC[C@H](Nc2nccc(-n3nnc4ccccc43)n2)CC1)N1CCOCC1" , thanks.
a: < 50%

* * *

- Assayed Target: MAP kinase-interacting serine/threonine-protein kinase 1 (Homo sapiens)
- Sequence (Q9BUB5 whole entry, looked up): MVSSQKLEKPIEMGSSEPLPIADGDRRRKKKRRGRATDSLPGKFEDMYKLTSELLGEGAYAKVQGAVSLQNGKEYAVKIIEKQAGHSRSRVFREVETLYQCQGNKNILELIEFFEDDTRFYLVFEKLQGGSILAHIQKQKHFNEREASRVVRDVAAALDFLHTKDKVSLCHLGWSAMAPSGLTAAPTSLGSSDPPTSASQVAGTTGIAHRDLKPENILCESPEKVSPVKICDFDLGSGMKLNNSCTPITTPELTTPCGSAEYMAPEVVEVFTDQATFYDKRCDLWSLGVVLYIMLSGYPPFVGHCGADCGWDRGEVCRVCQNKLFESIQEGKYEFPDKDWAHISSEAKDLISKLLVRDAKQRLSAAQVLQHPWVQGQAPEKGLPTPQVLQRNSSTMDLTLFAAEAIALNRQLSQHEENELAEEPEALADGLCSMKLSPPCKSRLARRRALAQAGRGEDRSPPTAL
- Assay Explanation: Competitive binding affinity to MKNK1 (unknown origin) at 10 uM in presence of ATP relative to control
Items are presented alongside their recorded inhibition.
Give just the number in %; leave the unit off.

1) O[C@H]1CC[C@H](Nc2nccc(-n3nnc4ccccc43)n2)CC1
97

Kindly consider the entry below.
q: # lookup: inhibition of "O[C@H]1CC[C@H](Nc2nccc(-n3ncc4ccccc43)n2)CC1"
a: 70

* * *

Reported inhibition values are given for each entry in this list.
- Assayed Target: LIM domain kinase 2 (Homo sapiens, UniProt P53671)
- Sequence (P53671 whole entry, looked up, the tested form may be a part): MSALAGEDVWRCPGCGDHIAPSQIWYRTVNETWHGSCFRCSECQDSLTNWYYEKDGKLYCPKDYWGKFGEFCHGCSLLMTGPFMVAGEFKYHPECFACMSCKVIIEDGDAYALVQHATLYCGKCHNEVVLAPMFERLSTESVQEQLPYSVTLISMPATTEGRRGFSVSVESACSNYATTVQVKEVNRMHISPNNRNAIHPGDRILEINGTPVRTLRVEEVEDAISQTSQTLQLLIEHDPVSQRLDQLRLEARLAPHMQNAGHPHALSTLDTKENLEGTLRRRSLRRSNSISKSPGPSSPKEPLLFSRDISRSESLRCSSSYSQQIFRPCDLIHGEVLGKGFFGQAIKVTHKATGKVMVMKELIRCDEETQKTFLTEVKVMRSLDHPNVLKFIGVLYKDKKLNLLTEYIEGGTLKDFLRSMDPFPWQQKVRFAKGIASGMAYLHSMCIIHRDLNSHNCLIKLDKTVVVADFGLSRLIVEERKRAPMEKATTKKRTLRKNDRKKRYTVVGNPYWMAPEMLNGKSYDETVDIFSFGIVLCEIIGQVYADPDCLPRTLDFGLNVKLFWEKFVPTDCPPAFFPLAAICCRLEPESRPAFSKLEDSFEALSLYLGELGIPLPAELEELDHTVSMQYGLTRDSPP
- Assay Explanation: Competitive binding affinity to LIMK2 (unknown origin) at 10 uM in presence of ATP relative to control
Hi! Could you send only the number? It should be in %, unit omitted.

1) O[C@H]1CC[C@H](Nc2nccc(-n3ccc4ccccc43)n2)CC1
81
2) O[C@H]1CC[C@H](Nc2nccc(-n3nnc4ccccc43)n2)CC1
78
3) O[C@H]1CC[C@H](Nc2nccc(-c3n[nH]c4ccccc34)n2)CC1
100

q: // query inhibition value for entry "O[C@H]1CC[C@H](Nc2nccc(-n3ncc4ccccc43)n2)CC1"
a: 76

* * *

Let's look at some compounds and their measured inhibition.
- Assayed Target: Mitogen-activated protein kinase 7 (Homo sapiens, UniProt Q13164)
- Sequence (Q13164 2-816 limits assumed): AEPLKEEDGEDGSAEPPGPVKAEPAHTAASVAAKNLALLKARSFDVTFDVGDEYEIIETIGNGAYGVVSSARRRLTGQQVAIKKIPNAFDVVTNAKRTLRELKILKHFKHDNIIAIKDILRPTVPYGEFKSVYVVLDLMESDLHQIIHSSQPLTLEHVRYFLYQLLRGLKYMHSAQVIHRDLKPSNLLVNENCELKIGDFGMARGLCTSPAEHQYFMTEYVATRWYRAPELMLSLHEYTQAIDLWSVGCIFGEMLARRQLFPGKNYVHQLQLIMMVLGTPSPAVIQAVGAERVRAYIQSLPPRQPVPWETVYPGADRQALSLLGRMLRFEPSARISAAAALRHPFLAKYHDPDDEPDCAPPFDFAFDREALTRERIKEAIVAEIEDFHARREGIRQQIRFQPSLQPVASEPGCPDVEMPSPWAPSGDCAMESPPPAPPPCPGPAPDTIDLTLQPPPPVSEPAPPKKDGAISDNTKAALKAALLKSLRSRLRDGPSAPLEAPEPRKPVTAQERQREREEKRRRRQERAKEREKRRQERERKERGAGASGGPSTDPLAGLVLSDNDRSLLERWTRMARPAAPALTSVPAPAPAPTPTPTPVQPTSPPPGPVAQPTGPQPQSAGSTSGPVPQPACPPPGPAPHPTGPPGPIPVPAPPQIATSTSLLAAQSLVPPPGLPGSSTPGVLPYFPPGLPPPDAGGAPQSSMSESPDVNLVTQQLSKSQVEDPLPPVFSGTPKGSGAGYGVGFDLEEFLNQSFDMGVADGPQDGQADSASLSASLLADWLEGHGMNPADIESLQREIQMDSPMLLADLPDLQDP
- Assay Explanation: Competitive binding affinity to ERK5 (unknown origin) at 10 uM in presence of ATP relative to control
Quick reminder: number only, in %, skip the unit.

1) O[C@H]1CC[C@H](Nc2nccc(-n3nnc4ccccc43)n2)CC1
100

q: Consider the compound "O[C@H]1CC[C@H](Nc2nccc(-n3ncc4ccccc43)n2)CC1" and give its measured inhibition.
a: 79

* * *

- Assayed Target: Ephrin type-B receptor 1 (Homo sapiens)
- Sequence (whole entry): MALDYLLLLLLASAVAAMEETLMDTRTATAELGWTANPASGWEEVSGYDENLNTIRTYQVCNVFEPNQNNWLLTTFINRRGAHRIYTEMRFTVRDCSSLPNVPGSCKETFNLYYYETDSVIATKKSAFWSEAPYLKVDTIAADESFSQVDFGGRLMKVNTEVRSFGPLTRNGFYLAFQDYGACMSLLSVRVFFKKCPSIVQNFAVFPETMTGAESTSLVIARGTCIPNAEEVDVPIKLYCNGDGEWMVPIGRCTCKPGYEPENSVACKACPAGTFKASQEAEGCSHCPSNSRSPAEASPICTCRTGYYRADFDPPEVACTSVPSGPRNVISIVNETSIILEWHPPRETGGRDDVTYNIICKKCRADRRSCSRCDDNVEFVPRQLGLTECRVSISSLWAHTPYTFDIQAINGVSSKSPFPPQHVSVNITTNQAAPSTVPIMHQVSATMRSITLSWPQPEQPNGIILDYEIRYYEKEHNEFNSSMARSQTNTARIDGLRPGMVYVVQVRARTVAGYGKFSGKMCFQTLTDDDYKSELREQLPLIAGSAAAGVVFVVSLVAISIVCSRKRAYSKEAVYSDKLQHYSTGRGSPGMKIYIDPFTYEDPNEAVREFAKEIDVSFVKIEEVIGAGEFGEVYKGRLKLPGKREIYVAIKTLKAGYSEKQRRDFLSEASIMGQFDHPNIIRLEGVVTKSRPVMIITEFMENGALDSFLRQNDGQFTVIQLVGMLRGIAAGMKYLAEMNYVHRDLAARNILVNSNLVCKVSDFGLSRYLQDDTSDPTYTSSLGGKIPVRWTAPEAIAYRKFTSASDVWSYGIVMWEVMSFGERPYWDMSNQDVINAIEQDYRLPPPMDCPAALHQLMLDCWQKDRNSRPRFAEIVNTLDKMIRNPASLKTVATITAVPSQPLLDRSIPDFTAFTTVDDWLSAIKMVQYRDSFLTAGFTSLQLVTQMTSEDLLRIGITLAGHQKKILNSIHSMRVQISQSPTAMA
- Assay Explanation: Competitive binding affinity to EPHB1 (unknown origin) at 10 uM in presence of ATP relative to control
inhibition reference

Below: 5 compounds and their reported inhibition.
1) O[C@H]1CC[C@H](Nc2nccc(-n3ncc4ccccc43)n2)CC1
< 50%
2) O[C@H]1CC[C@H](Nc2nccc(-c3n[nH]c4ccccc34)n2)CC1
< 50%
3) N[C@H]1CC[C@H](Nc2nccc(-n3nnc4ccccc43)n2)CC1
73%
4) O[C@H]1CC[C@H](Nc2nccc(-n3nnc4ccccc43)n2)CC1
< 50%
5) O=C([C@H]1CC[C@H](Nc2nccc(-n3nnc4ccccc43)n2)CC1)N1CCOCC1
< 50%

Alright, here's another compound for you.
q: Fill in: inhibition of "O[C@H]1CC[C@H](Nc2nccc(-n3ccc4ccccc43)n2)CC1" is ___
a: < 50%

* * *

- Assayed Target: Ribosomal protein S6 kinase alpha-3 (Homo sapiens)
- Assay Explanation: Competitive binding affinity to RPS6KA3 domain 1 (unknown origin) at 10 uM in presence of ATP relative to control
inhibition listing for selected compounds.
Give just the numeric value; % need not be written.

Below: 3 compounds and their reported inhibition.
1) O[C@H]1CC[C@H](Nc2nccc(-n3nnc4ccccc43)n2)CC1
77
2) N[C@H]1CC[C@H](Nc2nccc(-n3nnc4ccccc43)n2)CC1
84
3) O=C([C@H]1CC[C@H](Nc2nccc(-n3nnc4ccccc43)n2)CC1)N1CCOCC1
90

Let us examine a further case.
q: Request the reported inhibition associated with "O[C@H]1CC[C@H](Nc2nccc(-c3n[nH]c4ccccc34)n2)CC1"
a: 97

* * *

- Assayed Target: Leukocyte tyrosine kinase receptor (Homo sapiens)
- Assay Explanation: Competitive binding affinity to LTK (unknown origin) at 10 uM in presence of ATP relative to control
Assay Metric: inhibition

Worked cases, inhibition given:
1. O[C@H]1CC[C@H](Nc2nccc(-n3ncc4ccccc43)n2)CC1
< 50%
2. N[C@H]1CC[C@H](Nc2nccc(-n3nnc4ccccc43)n2)CC1
< 50%
3. O[C@H]1CC[C@H](Nc2nccc(-c3n[nH]c4ccccc34)n2)CC1
100%

q: May I ask what inhibition has been recorded for "O=C([C@H]1CC[C@H](Nc2nccc(-n3nnc4ccccc43)n2)CC1)N1CCOCC1" ?
a: < 50%

q: What do we get for "O[C@H]1CC[C@H](Nc2nccc(-n3nnc4ccccc43)n2)CC1" ?
a: < 50%

q: Same read-out for "O[C@H]1CC[C@H](Nc2nccc(-n3ccc4ccccc43)n2)CC1" ?
a: < 50%

* * *

- Assayed Target: Insulin receptor-related protein (Homo sapiens)
- Assay Explanation: Competitive binding affinity to INSRR (unknown origin) at 10 uM in presence of ATP relative to control
Assay Metric: inhibition

q: Which inhibition value is on record for "O[C@H]1CC[C@H](Nc2nccc(-c3n[nH]c4ccccc34)n2)CC1" ?
a: 98%

q: What do we get for "O[C@H]1CC[C@H](Nc2nccc(-n3nnc4ccccc43)n2)CC1" ?
a: < 50%

q: Continue with "O[C@H]1CC[C@H](Nc2nccc(-n3ncc4ccccc43)n2)CC1"
a: < 50%

q: Next molecule up: "O[C@H]1CC[C@H](Nc2nccc(-n3ccc4ccccc43)n2)CC1"
a: < 50%

* * *

- Assayed Target: Mast/stem cell growth factor receptor Kit (Homo sapiens)
- Assay Explanation: Competitive binding affinity to KIT (unknown origin) at 10 uM in presence of ATP relative to control
1.0 means recorded inhibition is 70% or above; 0.0 means it is below 70%.

Field: example entries. Status: answers known.
1) O[C@H]1CC[C@H](Nc2nccc(-n3ncc4ccccc43)n2)CC1
1.0
2) O=C([C@H]1CC[C@H](Nc2nccc(-n3nnc4ccccc43)n2)CC1)N1CCOCC1
0.0
3) O[C@H]1CC[C@H](Nc2nccc(-c3n[nH]c4ccccc34)n2)CC1
1.0

We next turn to a different molecule, shown below.
q: Determine whether this molecule has inhibition no lower than 70%: "O[C@H]1CC[C@H](Nc2nccc(-n3nnc4ccccc43)n2)CC1"
a: 1.0

* * *

- Assayed Target: Death-associated protein kinase 2 (Homo sapiens, UniProt Q9UIK4)
- Sequence (Q9UIK4 whole entry): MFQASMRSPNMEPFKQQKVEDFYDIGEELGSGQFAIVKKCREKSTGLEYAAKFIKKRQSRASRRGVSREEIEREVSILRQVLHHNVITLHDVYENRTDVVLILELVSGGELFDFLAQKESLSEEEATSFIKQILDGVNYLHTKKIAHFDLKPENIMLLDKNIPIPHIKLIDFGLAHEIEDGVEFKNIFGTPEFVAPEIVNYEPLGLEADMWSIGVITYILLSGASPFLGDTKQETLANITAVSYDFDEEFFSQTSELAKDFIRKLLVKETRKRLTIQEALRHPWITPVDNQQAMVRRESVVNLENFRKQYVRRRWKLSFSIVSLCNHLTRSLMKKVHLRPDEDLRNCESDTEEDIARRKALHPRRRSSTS
Assay Metric: pKd
// pKd here means minus log10 of the molar concentration (mol/L)

q: For the molecule "CS(=O)(=O)CCCOc1cccc2c1ccn2-c1ccnc(N[C@H]2CC[C@H](C(=O)N3CCC(O)CC3)CC2)n1" , what pKd is on record?
a: 5.89
